B1: KCNA3 (parent)
chain: YQSGGRIRRPVNVPIDIFSEEIRF

# Variants of: B1
# experiment description: protein stability index of a GFP-peptide fusion (GPS, HEK-293T) (PSI 1-6); higher = more stable;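 also: lentivirally expressed fusions sorted by FACS into six bins by GFP to DsRed ratio, PSI derived from sequencing read proportions per bin multiplied by bin number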
# protocol conditions: c terminus: a fixed tail appended
Give measured protein stability index for each item. Keep answers brief.
Give bare numbers.

YQSGGRIYRPVNVPIDIFSEEIRF
3.3
YQYGGRIRRPVNVPIDIFSEEIRF
2.21
YQSGGRIRRPVNVPIDNFSEEIRF
2.74
YQEGGRIRRPVNVPIDIFSEEIRF
2.93
LQSGGRIRRPVNVPIDIFSEEIRF
2.08
YQSGGRIRRKVNVPIDIFSEEIRF
1.33
YQSGGRIRRPVNVPIDIFSEEIRD
2.1
YQSGGRIRRPVNVPIDIHSEEIRF
2.29
YQSGGRIRRPVNVWIDIFSEEIRF
2.98
YHSGGRIRRPVNVPIDIFSEEIRF
3.93

Batch lookup, protein stability index per entry.
1. YQLGGRIRRPVNVPIDIFSEEIRF
2. YQSGGRIRRPVNVPIDIFSEEIAF
3. YQSHGRIRRPVNVPIDIFSEEIRF
4. RQSGGRIRRPVNVPIDIFSEEIRF
5. YQSGGRIFRPVNVPIDIFSEEIRF
6. YQSGGRIRRPVNVPIAIFSEEIRF
7. YESGGRIRRPVNVPIDIFSEEIRF

1: 2.23; 2: 2.29; 3: 1.97; 4: 2.67; 5: 2.03; 6: 3.22; 7: 2.33

Look at each variant and report its protein stability index.
1. YQSGGRIRRPVNVPIGIFSEEIRF
2. YQSGGGIRRPVNVPIDIFSEEIRF
3. YQSGGIIRRPVNVPIDIFSEEIRF
4. YQSGGFIRRPVNVPIDIFSEEIRF
5. YQSGGRIRRPVEVPIDIFSEEIRF
6. YQSGGRIRKPVNVPIDIFSEEIRF

1: 1.73; 2: 1.85; 3: 1.9; 4: 1.65; 5: 1.8; 6: 1.78

Data provenance: the supplement of paper PMC10567573
